tgt: PEG-3 (UniProt Q6IN02)
Sequence (Q6IN02 whole entry, looked up): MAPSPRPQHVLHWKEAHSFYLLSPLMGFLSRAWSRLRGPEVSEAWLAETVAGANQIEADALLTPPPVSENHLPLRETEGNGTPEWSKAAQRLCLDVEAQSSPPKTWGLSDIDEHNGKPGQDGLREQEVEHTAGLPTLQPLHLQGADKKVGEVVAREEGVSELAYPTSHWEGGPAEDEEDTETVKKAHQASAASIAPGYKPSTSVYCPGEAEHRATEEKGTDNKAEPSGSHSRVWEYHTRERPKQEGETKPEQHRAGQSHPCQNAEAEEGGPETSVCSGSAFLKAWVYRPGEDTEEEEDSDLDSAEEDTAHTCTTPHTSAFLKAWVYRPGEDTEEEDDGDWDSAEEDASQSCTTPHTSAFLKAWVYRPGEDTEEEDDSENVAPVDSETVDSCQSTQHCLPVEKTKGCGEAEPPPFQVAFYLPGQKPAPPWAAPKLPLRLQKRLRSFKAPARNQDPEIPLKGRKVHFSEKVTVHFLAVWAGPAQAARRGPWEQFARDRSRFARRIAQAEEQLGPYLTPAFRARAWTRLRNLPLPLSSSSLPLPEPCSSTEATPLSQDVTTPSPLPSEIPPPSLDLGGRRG
measurement_protocol: Peg3 promoter luciferase inhibitors, potency, dose response, cell-based, HeLa, CREF/GAPDH counter-screen panel (AID 624167)
experimental_parameters: HeLa PEG-Prom luciferase reporter, overnight, CREF/GAPDH counter-screens; run 2, dose range 1, at 100 µM (top of the series)
Quick reference for inhibition among some compounds

compound: N#Cc1ccc(Cn2cc(C=O)c3ccccc32)cc1
inhibition / %: 42.5

compound: CC[n+]1c(-c2ccccc2)c2cc(N)ccc2c2ccc(N)cc21
inhibition / %: 102

compound: Cc1ccc(C)c(NP(=O)(Oc2ccccc2)Oc2ccccc2)c1
inhibition / %: 96.7

compound: CC(=O)OC1(C)CC(C)C(=O)C(C(O)CC2CC(=O)NC(=O)C2)C1 (stereo not given)
inhibition / %: 94.4

compound: O=C(CSC1c2ccccc2-c2ccccc21)N/N=C/c1ccccc1O
inhibition / %: 66.1

compound: O=Cc1cn(Cc2ccc([N+](=O)[O-])cc2)c2ccccc12
inhibition / %: 29.8

compound: COc1ccc(-n2nnnc2C(C2CC2)N2CCC(n3c(=O)[nH]c4ccccc43)CC2)cc1 (stereo not given)
inhibition / %: 95.7

compound: Cc1[nH]c2ccc(OC(F)(F)F)cc2c1CCNCc1cccc([N+](=O)[O-])c1
inhibition / %: 101

compound: O=C1NC(=S)N(c2ccccc2F)C(=O)/C1=C\c1cccs1
inhibition / %: 99

compound: C=Cc1cc(OC)c2c(c1)c(=O)oc1c2cc(OC)c2c(O)ccc(C3OC(C)C(O)C(C)(O)C3O)c21 (stereo not given)
inhibition / %: 102
